Provide the recorded pIC50 for the entries that follow.
Biological target: USP28 (His-tagged USP28-FL-mammalian) (Homo sapiens, UniProt Q96RU2)
Construct: Expression of USP28 (1-1077)-TEV-6*His (pTT5 vector) was carried out in Expi293f cells; made in house; host or cells: Expi293F cells (pTT5 vector)
Sequence (Q96RU2 whole entry): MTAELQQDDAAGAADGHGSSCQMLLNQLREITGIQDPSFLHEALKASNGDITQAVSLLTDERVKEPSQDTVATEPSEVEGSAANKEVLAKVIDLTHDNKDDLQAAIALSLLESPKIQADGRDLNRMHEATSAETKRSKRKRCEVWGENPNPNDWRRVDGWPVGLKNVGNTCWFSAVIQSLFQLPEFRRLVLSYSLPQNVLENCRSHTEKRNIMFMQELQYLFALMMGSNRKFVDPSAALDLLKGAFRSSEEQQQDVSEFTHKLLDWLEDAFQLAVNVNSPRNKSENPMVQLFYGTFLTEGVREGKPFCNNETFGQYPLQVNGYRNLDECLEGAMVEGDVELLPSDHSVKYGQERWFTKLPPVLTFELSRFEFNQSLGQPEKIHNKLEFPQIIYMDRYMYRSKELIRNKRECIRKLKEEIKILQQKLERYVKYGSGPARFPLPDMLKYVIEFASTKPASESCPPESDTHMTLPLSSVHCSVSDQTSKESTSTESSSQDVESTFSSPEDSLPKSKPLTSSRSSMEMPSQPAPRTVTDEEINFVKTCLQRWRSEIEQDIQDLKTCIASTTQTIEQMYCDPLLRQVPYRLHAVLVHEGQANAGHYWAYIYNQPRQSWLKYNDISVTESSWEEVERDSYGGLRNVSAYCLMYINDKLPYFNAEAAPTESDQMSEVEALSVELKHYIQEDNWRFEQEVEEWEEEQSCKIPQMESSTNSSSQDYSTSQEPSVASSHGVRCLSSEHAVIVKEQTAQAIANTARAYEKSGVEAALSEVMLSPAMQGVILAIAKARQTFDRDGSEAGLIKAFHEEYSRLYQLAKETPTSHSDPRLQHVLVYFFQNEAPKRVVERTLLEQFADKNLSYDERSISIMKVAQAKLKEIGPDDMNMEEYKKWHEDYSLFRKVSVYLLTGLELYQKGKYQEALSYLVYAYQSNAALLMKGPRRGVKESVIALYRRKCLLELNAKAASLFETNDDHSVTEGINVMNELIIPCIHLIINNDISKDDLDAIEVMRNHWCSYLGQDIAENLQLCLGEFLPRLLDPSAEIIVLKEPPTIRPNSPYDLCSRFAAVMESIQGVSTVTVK
Test: Ubiquitin-Rhodamine 110 Assay for USP28 Activity, Example A-1(a)
Format: biochemical
Conditions: Ubiquitin-Rhodamine 110 assay, read-out: USP28 A-1(a) IC50 range
pIC50: −log10 of the molar value.

Please fill in: pIC50 reported for CCn1ccc2cc(C(=O)N[C@H]3CCc4nc(N5C[C@@H](COC)[C@@H](N)C5)ccc4C3)cnc21 (single isomer, unassigned) = 5.70 to 6.70

Documented pIC50 of Cc1ccc2c(N)c(C(=O)N[C@H]3CCc4c(C#N)c(N5CC6CCC(C5)N6)cc(F)c4C3)sc2n1 (single isomer, unassigned) : 7.30 to 9.00

The value of pIC50 measured for the molecule CO[C@H]1CN(c2cc(F)c3c(c2C#N)CC[C@@H](NC(=O)c2sc4nc(C)ccc4c2N)C3)C[C@@H]1N (single isomer, unassigned) turned out to be 5.70 to 6.70

Just so you know, measured pIC50 for Cc1ccc2c(N)c(C(=O)N[C@H]3CCc4c(C#N)c(N5CCNCC5)cc(F)c4C3)sc2n1 (single isomer, unassigned) came out at 7.30 to 9.00

Kindly note the recorded pIC50 for Cc1ccc2c(N)c(C(=O)N[C@@H]3CCc4cc(N5CCNCC5)ccc4C3)sc2n1 (single isomer, unassigned) , which is 6.70 to 7.30
